Give half-life for every item shown.
assay_remarks: Half life in Sprague-Dawley rat at 2 mg/kg, iv
Assay type: ADME, organism-based
Design: dose 2 mg/kg, route intravenous
cond: in vivo
Number only, in h; omit the unit.

compound `N#Cc1ccc(N2N=C(c3ccc(C(=O)O)cc3)C[C@@H]2C2CCCC2)cc1Cl` , half-life observed: 1.2

compound N#Cc1ccc(N2N=C3c4ccc(C(=O)O)cc4CC[C@@H]3[C@@H]2C2CCCC2)cc1Cl [PF-03882845] , half-life observed: 1.7

compound `CCOc1cc(C2=NN(c3ccc(C#N)c(Cl)c3)[C@@H](C3CCCC3)C2)ccc1C(=O)O` , half-life observed: 1.3

compound `COc1cc(C2=NN(c3ccc(C#N)c(Cl)c3)[C@@H](C3CCCC3)C2)ccc1C(=O)O` , half-life observed: 1.9

compound `Cc1cc(N2N=C3c4ccc(C(=O)O)cc4CO[C@@H]3[C@@H]2C2CCCC2)ccc1C#N` , half-life observed: 1.6

compound `N#Cc1ccc(N2N=C(c3ccc(C(=O)O)cc3)C[C@@H]2c2ccc(F)cc2)cc1Cl` , half-life observed: 2.6

Origin of values: ChEMBL document CHEMBL1212897
